- target: GR (Homo sapiens (Human))
- Sequence (P04150 whole entry): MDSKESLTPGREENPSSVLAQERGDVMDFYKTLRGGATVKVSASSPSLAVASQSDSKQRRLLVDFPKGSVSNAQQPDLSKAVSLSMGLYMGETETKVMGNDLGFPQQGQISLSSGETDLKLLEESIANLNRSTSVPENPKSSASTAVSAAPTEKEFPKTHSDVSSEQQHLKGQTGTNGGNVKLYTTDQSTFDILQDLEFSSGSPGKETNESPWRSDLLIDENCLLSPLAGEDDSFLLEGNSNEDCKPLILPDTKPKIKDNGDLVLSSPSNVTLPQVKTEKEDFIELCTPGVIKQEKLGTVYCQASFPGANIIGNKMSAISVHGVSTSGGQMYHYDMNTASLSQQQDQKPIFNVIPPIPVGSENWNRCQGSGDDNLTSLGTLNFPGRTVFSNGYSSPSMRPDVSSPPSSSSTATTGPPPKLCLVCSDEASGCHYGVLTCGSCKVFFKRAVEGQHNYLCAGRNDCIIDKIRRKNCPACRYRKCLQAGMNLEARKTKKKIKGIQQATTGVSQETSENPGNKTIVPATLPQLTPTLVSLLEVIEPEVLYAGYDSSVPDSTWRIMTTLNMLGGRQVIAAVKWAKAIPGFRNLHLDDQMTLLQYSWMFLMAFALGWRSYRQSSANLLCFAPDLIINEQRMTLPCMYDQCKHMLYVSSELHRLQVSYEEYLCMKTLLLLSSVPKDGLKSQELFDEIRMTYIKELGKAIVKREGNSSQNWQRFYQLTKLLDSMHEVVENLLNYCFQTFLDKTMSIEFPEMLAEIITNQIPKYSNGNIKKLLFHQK
- assayOverview: In Vitro GR Luciferase Reporter Assay
- conditionDetails: CHO-K1-GR-MMTV-Luc reporter cells, antagonist assay, 10 nM Dexamethasone, 18-24 hours
measureName: IC50

// lookup IC50 for CCN(C)c1cc(F)c([C@H]2C[C@@]3(C)[C@@H](CC[C@@]3(O)C#CC(C)C)[C@@H]3CCC4=CC(=O)CCC4=C32)c(F)c1
≤ 100 nM

Also, CC(C)(C)C#C[C@]1(O)CC[C@H]2[C@@H]3CCC4=CC(=O)CCC4=C3[C@@H](c3ccc4c(c3)OCCO4)C[C@@]21C please.
≤ 100 nM

Others:
// lookup IC50 for [2H]C([2H])([2H])N(c1ccc([C@H]2C[C@@]3(C)[C@@H](CC[C@@]3(O)C#CC(C)(C)C)[C@@H]3CCC4=CC(=O)CCC4=C32)cc1)C([2H])([2H])[2H]
≤ 100 nM

Also, Cc1c(F)cc([C@H]2C[C@@]3(C)[C@@H](CC[C@@]3(O)C#CC(F)(F)F)[C@@H]3CCC4=CC(=O)CCC4=C32)cc1F please.
> 100 nM

Also, CCN(CC)c1cc(F)c([C@H]2C[C@@]3(C)[C@@H](CC[C@@]3(O)C#CC(C)C)[C@@H]3CCC4=CC(=O)CCC4=C32)c(F)c1 please.
≤ 100 nM

Also, CC(C)C#C[C@]1(O)CC[C@H]2[C@@H]3CCC4=CC(=O)CCC4=C3[C@@H](c3c(F)cc(N(C)C)cc3F)C[C@@]21C please.
≤ 100 nM
